Every entry's value here was drawn from the supplement of paper PMC8882468.

Tested on: HCI-024 (organoid from a breast cancer xenograft)
protocol details: CTG-3D luminescence at 96 h relative to day-0 seeding control (ratio to day 0); higher = more growth / less cytotoxicity; PDxO 3D drug screen, 96 h, CTG-3D normalised to day-0 seeding control.
condition details: 0.1 µM; days in culture: 105
measurement kind: CTG-3D luminescence at 96 h

INSERT INTO measurements (given_smiles, measurement_kind, observed_result) VALUES
  ('NC(=O)c1cccc2cn(-c3ccc([C@@H]4CCCNC4)cc3)nc12', 'CTG-3D luminescence at 96 h', 1.43),
  ('C[C@H](NC(=O)CCC(F)(F)F)C(=O)N[C@@H]1C(=O)N(CCO)c2ncccc2-c2ccccc21', 'CTG-3D luminescence at 96 h', 1.59),
  ('C=CCn1c(=O)c2cnc(Nc3ccc(N4CCN(C)CC4)cc3)nc2n1-c1cccc(C(C)(C)O)n1', 'CTG-3D luminescence at 96 h', 1.44),
  ('CC[C@H](NC(=O)[C@H](C)NC)C(=O)N1C[C@@H](O)C[C@H]1Cc1c(-c2[nH]c3cc(F)ccc3c2C[C@@H]2C[C@H](O)CN2C(=O)[C@H](CC)NC(=O)[C@H](C)NC)[nH]c2cc(F)ccc12', 'CTG-3D luminescence at 96 h', 0.175),
  ('CS(=O)(=O)c1ccc(C(=O)Nc2ccc(Cl)c(-c3ccccn3)c2)c(Cl)c1', 'CTG-3D luminescence at 96 h', 1.77),
  ('O=C(c1ccc(F)c(F)c1Nc1ccc(I)cc1F)N1CC(O)([C@@H]2CCCCN2)C1', 'CTG-3D luminescence at 96 h', 1.36),
  ('CCN1CCN(Cc2ccc(Nc3ncc(F)c(-c4cc(F)c5nc(C)n(C(C)C)c5c4)n3)nc2)CC1', 'CTG-3D luminescence at 96 h', 1.48);

---

System: HCI-016 (organoid from a triple-negative breast cancer xenograft)
protocol details: CTG-3D luminescence at 96 h relative to day-0 seeding control (ratio to day 0); higher = more growth / less cytotoxicity; PDxO 3D drug screen, 96 h, CTG-3D normalised to day-0 seeding control.
condition details: 0.00025 µM; days in culture: 199
measurement kind: CTG-3D luminescence at 96 h

INSERT INTO results (compound, measurement_kind, observed_result) VALUES
  ('CCN1CCN(Cc2ccc(Nc3ncc(F)c(-c4cc(F)c5nc(C)n(C(C)C)c5c4)n3)nc2)CC1 [abemaciclib]', 'CTG-3D luminescence at 96 h', 1.75),
  ('C[C@]12CC[C@@H]3c4ccc(O)cc4C[C@@H](CCCCCCCCC[S+]([O-])CCCC(F)(F)C(F)(F)F)[C@H]3[C@@H]1CC[C@@H]2O (stereo partly drawn) [fulvestrant]', 'CTG-3D luminescence at 96 h', 2.05),
  ('CNC(=O)c1cccc(-c2ccc3c(N4CCOC[C@@H]4C)nc(N4CCOC[C@@H]4C)nc3n2)c1 [vistusertib]', 'CTG-3D luminescence at 96 h', 1.65);

---

System: HCI-019 (organoid from a triple-negative breast cancer xenograft)
protocol details: CTG-3D luminescence at 96 h relative to day-0 seeding control (ratio to day 0); higher = more growth / less cytotoxicity; PDxO 3D drug screen, 96 h, CTG-3D normalised to day-0 seeding control.
condition details: 12.5 pM; days in culture: 152
measurement kind: CTG-3D luminescence at 96 h

INSERT INTO measurements (compound, observed_result) VALUES
  ('CC(=O)O[C@H]1C(=O)[C@@]2(C)[C@H]([C@H](OC(=O)c3ccccc3)[C@]3(O)C[C@H](OC(=O)[C@H](O)[C@@H](NC(=O)c4ccccc4)c4ccccc4)C(C)=C1C3(C)C)[C@]1(OC(C)=O)CO[C@@H]1C[C@@H]2O [paclitaxel]', 1.25),
  ('C=CCn1c(=O)c2cnc(Nc3ccc(N4CCN(C)CC4)cc3)nc2n1-c1cccc(C(C)(C)O)n1 [adavosertib]', 2.43),
  ('Cc1nc(-c2cn3c(n2)-c2ccc(-c4cnn(C(C)(C)C(N)=O)c4)cc2OCC3)n(C(C)C)n1 [taselisib]', 3.26),
  ('CNC(=O)c1cccc(-c2ccc3c(N4CCOC[C@@H]4C)nc(N4CCOC[C@@H]4C)nc3n2)c1 [vistusertib]', 2.51),
  ('CC(C)n1nc(-c2ccc3oc(N)nc3c2)c2c(N)ncnc21 [sapanisertib]', 4.18),
  ('O=C(O)C1(C(=O)O)CCC1.[NH2-].[NH2-].[Pt+2] [carboplatin]', 2.94),
  ('CC1(C)CCC(c2ccc(Cl)cc2)=C(CN2CCN(c3ccc(C(=O)NS(=O)(=O)c4ccc(N[C@H](CCN5CCOCC5)CSc5ccccc5)c(S(=O)(=O)C(F)(F)F)c4)cc3)CC2)C1 [navitoclax]', 2.86),
  ('CCc1c2c(nc3ccc(O)cc13)-c1cc3c(c(=O)n1C2)COC(=O)[C@]3(O)CC [SN-38]', 3.21);
